Provide the reported relative viability of each item.
System: NCI-H2023
procedureSummary: relative viability (nuclei count vs DMSO), 5 days (fraction); higher = more cells survive
settings: first compound 8 µM

Some compounds with known relative viability results, for comparison:
compound	assayResult
CCCCCCCCCCCC1=C(O)C(=O)C=C(O)C1=O [Embelin] + O=C(CCCCCCC(=O)Nc1ccccc1)NO [Vorinostat] (partner 1 µM)	0.392
CCCCCCCCCCCC1=C(O)C(=O)C=C(O)C1=O [Embelin] + O=C(c1cc(Cc2n[nH]c(=O)c3ccccc23)ccc1F)N1CCN(C(=O)C2CC2)CC1 [Olaparib] (partner 8 µM)	0.229

Item CCCCCCCCCCCC1=C(O)C(=O)C=C(O)C1=O [Embelin] + Cc1cc(Nc2cc(N3CCN(C)CC3)nc(Sc3ccc(NC(=O)C4CC4)cc3)n2)n[nH]1 [Tozasertib] (partner 0.1 µM) has what recorded relative viability? 0.302
